Molecular target: T1, RXFP1 receptor (UniProt Q9HBX9 1-757, limits assumed)
T1 sequence (looked up): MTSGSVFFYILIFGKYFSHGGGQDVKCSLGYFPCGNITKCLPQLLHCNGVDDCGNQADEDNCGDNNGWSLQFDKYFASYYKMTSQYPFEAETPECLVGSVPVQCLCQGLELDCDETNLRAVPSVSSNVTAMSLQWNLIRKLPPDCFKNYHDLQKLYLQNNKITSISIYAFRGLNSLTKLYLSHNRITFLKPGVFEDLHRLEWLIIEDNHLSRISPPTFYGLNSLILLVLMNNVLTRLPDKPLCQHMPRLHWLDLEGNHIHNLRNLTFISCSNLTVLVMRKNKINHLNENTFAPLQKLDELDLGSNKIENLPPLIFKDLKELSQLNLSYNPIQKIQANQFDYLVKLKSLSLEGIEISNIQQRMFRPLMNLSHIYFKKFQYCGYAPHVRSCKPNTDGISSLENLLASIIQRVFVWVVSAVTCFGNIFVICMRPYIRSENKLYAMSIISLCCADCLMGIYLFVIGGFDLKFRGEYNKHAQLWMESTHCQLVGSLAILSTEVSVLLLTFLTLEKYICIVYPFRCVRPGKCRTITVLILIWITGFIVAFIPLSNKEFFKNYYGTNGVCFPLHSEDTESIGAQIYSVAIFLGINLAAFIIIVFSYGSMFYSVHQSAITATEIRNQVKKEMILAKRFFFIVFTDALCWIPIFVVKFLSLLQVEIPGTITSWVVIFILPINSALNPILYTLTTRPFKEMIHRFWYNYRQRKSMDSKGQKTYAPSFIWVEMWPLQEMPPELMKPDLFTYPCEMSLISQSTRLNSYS
Assay: cell-based or functional assay
*1 amine or outer side, *2 acyl side, *3 side chain or, on linkers, in order; H or OH if unused. Primed or numbered codes have the meaning given here. Side-chain parts run from the residue outwards. [ ]: non-standard residue; d: D form. The star is where a group is joined. γGlu = O=C(O)[C@H](CCC(=O)[*:2])N[*:1]; Stearoyl = CCCCCCCCCCCCCCCCCC(=O)*; Palmitoyl = CCCCCCCCCCCCCCCC(=O)*; αMeK = C[C@](N)(CCCCN)C(=O)O; Nle = CCCC[C@H](N)C(=O)O; PEG2′ = PEG2 spacer unit; PEG2″ = not defined here; Aib = CC(C)(N)C(=O)O
readout type: EC50 (nM), OVCAR 5 cells (cAMP)

{"binder": "Ac-LEGREKVRAK(Ac)I[Aib][Aib]EG[Nle]STFS[αMeK]RKK(Ac)K([PEG2′-PEG2′-PEG2′-PEG2′-γGlu-γGlu-γGlu-γGlu-Palmitoyl])-NH2 [peptide of SEQ ID NO: 140]", "EC50 (nM), OVCAR 5 cells (cAMP)": 0.4}
{"binder": "Ac-LEGREKVRAQI[Aib][Aib]EG[Nle]STWS[Aib]RKK([PEG2″-PEG2″-γGlu-γGlu-γGlu-Stearoyl])-NH2 [peptide of SEQ ID NO: 67]", "EC50 (nM), OVCAR 5 cells (cAMP)": 0.39}
